# STUDY_SYSTEM: T1, Recombinant Human CD14/His Protein (B294801) (human, UniProt P08571 20-352, limits assumed)
# T1 construct: Bought His-tagged recombinant human CD14; also called recombinant human CD14 antigen; CD14 antigen; not shown: histidine tag
# T1 sequence (looked up): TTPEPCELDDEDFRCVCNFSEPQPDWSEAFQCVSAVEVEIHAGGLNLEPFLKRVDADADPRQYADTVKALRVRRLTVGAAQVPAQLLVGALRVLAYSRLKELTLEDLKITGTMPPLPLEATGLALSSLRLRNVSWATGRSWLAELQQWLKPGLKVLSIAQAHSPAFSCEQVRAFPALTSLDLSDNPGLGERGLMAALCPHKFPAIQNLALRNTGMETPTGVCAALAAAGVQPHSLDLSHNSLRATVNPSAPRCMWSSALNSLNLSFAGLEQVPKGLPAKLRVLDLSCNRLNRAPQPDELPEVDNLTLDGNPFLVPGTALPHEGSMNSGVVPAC
# PROTOCOL_SUMMARY: SPR (Biacore 8K), antibody captured (1 ug/mL) on Protein A chip, CD14-His analyte 0.1953125-25 nM, 1:1 binding
List of Change Factor (KD relative to mouse antibody D6DD3D001) values.
// response body must contain only the number

Worked set:
Antibody No. MPDDAD005 (HU1127-hVH3/hVL3-5) (antibody, V domains shown, D6DD3D014 with the light chain PTM site NS (VL amino acids 34, 35) changed to QS; Tested as a recombinant antibody with hFc tag, 144 kDa) VH: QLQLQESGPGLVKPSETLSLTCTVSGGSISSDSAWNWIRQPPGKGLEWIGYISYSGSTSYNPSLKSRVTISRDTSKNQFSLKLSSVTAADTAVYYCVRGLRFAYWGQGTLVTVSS VL: DIQLTQSPSSLSASVGDRVTITCRASESVDSYVQSFLHWYQQKPGKAPKLLIYRASNLQSGVPSRFSGSGSRTDFTLTISSLQPEDVATYYCQQSNEDPYTFGQGTKLEIK	5.65
Antibody No. D6DD3D001 (HU1127-mVH/mVL) (antibody, human IgG1, kappa, V domains shown, Mouse variable domains of Atibuclimab on human IgG1 constant regions (hFc, 146 kDa); also called Original IgG1 antibody; mouse antibody) VH: DVQLQQSGPGLVKPSQSLSLTCTVTGYSITSDSAWNWIRQFPGNRLEWMGYISYSGSTSYNPSLKSRISITRDTSKNQFFLQLNSVTTEDTATYYCVRGLRFAYWGQGTLVTVSS VL: DIVLTQSPASLAVSLGQRATISCRASESVDSYVNSFLHWYQQKPGQPPKLLIYRASNLQSGIPARFSGSGSRTDFTLTINPVEADDVATYYCQQSNEDPYTFGGGTKLEIKR	1

Kindly consider the entry below.
**Q:** Give Change Factor (KD relative to mouse antibody D6DD3D001) for Antibody No. MPDDAD004 (HU1127-hVH3/hVL3-4) (antibody, V domains shown, D6DD3D014 with the light chain PTM site NS (VL amino acids 34, 35) changed to NA; Tested as a recombinant antibody with hFc tag, 144 kDa) VH: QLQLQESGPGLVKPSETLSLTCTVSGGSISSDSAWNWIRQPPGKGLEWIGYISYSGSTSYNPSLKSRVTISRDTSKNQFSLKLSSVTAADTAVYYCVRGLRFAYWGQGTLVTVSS VL: DIQLTQSPSSLSASVGDRVTITCRASESVDSYVNAFLHWYQQKPGKAPKLLIYRASNLQSGVPSRFSGSGSRTDFTLTISSLQPEDVATYYCQQSNEDPYTFGQGTKLEIK
**A:** 6.86

From: patent US20250011456A1
